- System: Rattus norvegicus
- test_summary: Inhibition of rat passive cutaneous anaphylaxis (PCA) reaction after intravenous administration
- Type: functional
- condition_context: Rattus norvegicus, iv; read-out: ID50 (the source's name)
Provide the reported ED50 of each item.
Write the value in µmol/kg as a bare number.

Ask: Find ED50 (Rattus norvegicus) for the entry CC1CC/C(=N\Nc2ccc(O)cc2)c2ncc(C(=O)O)c(=O)n21 (centres undefined)
Result: 1.7

Ask: Proceed to CC1CC/C(=N\Nc2cccc([N+](=O)[O-])c2)c2ncc(C(=O)O)c(=O)n21 (centres undefined)
Result: 0.5

Ask: Proceed to CC1CC/C(=N\Nc2ccccc2)c2ncc(CC(=O)O)c(=O)n21 (centres undefined)
Result: 100

Ask: Proceed to CC(=O)c1ccc(N/N=C2\CCC(C)n3c2ncc(C(=O)O)c3=O)cc1 (centres undefined)
Result: 9.5

Ask: Proceed to CC1CC/C(=N\Nc2ccccc2O)c2ncc(C(=O)O)c(=O)n21 (centres undefined)
Result: 0.26

Ask: Proceed to "C[C@H]1CC/C(=N\Nc2ccc(O)cc2)c2ncc(C(=O)O)c(=O)n21"
Result: 110

Ask: Proceed to CC1CC/C(=N\Nc2ccc([N+](=O)[O-])cc2)c2ncc(C(=O)O)c(=O)n21 (centres undefined)
Result: 0.8

----------
- Species on record: Rattus norvegicus
- test_summary: Inhibition of histamine release from sensitized rat mast cells in vitro
- Format: functional
- condition_context: mast cells
Lab note: compare EC50 with 400 uM l-1, writing MET if less and NOT MET if equal or more.

Ask: Bench note: check whether CC1CC/C(=N\Nc2ccc(C(=O)O)cc2)c2nccc(=O)n21 (stereo not given) shows EC50 below 400 uM l-1
Result: NOT MET

Ask: Proceed to CCOC(=O)c1cnc2n(c1=O)C(C)CC/C2=N\Nc1cccc(C(=O)O)c1 (stereo not given)
Result: NOT MET

Ask: Proceed to CC1CC/C(=N\Nc2ccc(C(=O)O)cc2)c2ncc(C(=O)O)c(=O)n21 (stereo not given)
Result: NOT MET

Ask: Proceed to CC1CC/C(=N\Nc2cccc(Cl)c2)c2ncc(C(=O)O)c(=O)n21 (stereo not given)
Result: MET

Ask: Proceed to CC1CCC(=NNc2ccccc2C(=O)O)c2ncc(C(=O)O)c(=O)n21 (stereo in doubt; 57)
Result: NOT MET

----------
- Species on record: Rattus norvegicus
- test_summary: Inhibition of histamine release from sensitized rat mast cells in vitro
- Type: functional
- condition_context: Rattus norvegicus, Mast cell; read-out: EC50
readout_label: pEC50
Entry type: numeric. Quantity: pEC50, the -log10 of concentration in molar units.

Ask: Field request: pEC50 | item: CC1C/C(=N\Nc2ccccc2)c2ncc(C(=O)O)c(=O)n2C1 (stereo not drawn)
Result: 4.89

Ask: Proceed to CC(=O)c1ccc(N/N=C2\CCC(C)n3c2ncc(C(=O)O)c3=O)cc1 (stereo not drawn)
Result: 5.09

Ask: Proceed to CC1CC/C(=N\Nc2ccc([N+](=O)[O-])cc2)c2ncc(C(=O)O)c(=O)n21 (stereo not drawn)
Result: 5.05
